Source listed as ChEMBL document CHEMBL2034956.

# Assay method text: Antiinflammatory activity in human neutrophils assessed as inhibition of FMLP/CB-induced elastase release using Meo-Suc-Ala-Ala-Pro-Val-p-nitroanilide as substrate incubated for 5 mins prior to FMLP/CB-challenge by spectrophotometry
# Format: functional, cell-based
# Measurement setup: Neutrophil
Readout kind: IC50

>  <Compound>
C=C(C)[C@@H]1CCC2=C[C@](O)(C(C)C)CC[C@@]23OC(=O)CC[C@@]13C (relative stereo)

>  <IC50>
> 10 µg/mL

$$$$
>  <Compound>
COc1ccc(-c2oc3cc(OC)c(OC)c(O)c3c(=O)c2OC)cc1

>  <IC50>
> 10 µg/mL

$$$$
>  <Compound>
C=C1C[C@@H](O)[C@H]2C(C)(C)CCC[C@]2(C)[C@H]1CC/C(C)=C/C(=O)O

>  <IC50>
> 10 µg/mL

$$$$
>  <Compound>
CC(C)c1ccc2c(c1)CC[C@@H](C(C)(C)O)[C@]2(C)CCC(=O)O (relative stereo)

>  <IC50>
> 10 µg/mL

$$$$
>  <Compound>
COc1ccc(-c2oc3cc(OC)c(OC)c(O)c3c(=O)c2OC)cc1OC

>  <IC50>
> 10 µg/mL

$$$$

For the next question, use this compound.
Exercise: Fill blank: measured IC50 of the compound C[C@H]1[C@H](C)CC[C@]2(C(=O)O)CC[C@]3(C)C(=CC[C@@H]4[C@@]5(C)CC[C@H](O)C(C)(C)[C@@H]5CC[C@]43C)[C@H]12 is ____.
Solution: 5.21 µg/mL
